Target: T1, IL-13RA2 huFc (human)
T1 construct: Expressed in 293F cells, purified on protein A; also called human IL13RA2; recombinant IL-13RA2
T1 sequence (chain, as listed by the source limits assumed): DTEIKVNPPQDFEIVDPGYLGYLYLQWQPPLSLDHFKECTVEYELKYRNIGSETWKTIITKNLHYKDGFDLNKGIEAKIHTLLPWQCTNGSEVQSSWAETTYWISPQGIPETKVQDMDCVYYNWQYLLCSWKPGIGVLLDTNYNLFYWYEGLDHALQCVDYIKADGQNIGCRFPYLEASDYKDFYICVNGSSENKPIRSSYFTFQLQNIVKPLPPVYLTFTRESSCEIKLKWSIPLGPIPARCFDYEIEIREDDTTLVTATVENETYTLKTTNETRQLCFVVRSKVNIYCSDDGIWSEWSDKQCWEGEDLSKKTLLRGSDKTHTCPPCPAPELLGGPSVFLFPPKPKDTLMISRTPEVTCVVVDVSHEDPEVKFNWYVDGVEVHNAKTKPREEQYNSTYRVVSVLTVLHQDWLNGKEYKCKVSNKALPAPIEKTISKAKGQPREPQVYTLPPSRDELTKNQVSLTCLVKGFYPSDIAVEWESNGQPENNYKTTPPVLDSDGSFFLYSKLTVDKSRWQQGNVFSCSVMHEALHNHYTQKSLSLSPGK
Test: SPR (Biacore T200), nickel-purified scFv
OBSERVATION_TYPE: koff
The reply should read as a number followed by its unit.

Field: example entries. Status: answers known.
Entry 1H7 (scFv) (scFv, also called clone 1H7) scFv: EVQLLESGGGLVQPGGSLRLSCAASGFTFRRYAMSWVRQAPGKGLEWVSGISGSGGGTYYADSVKGRFTISRDNSKNTLYLQMNSLRAEDTAVYYCAKVRYGWGAGAFDYWGQGTLVTVSSGGGGSGGGGSGGGGSDIQMTQSPSTLSASVGDRVTITCRASQSISSWLAWYQQKPGKAPKLLIYDASSLESGVPSRFSGSGSGTEFTLTISSLQPDDFATYYCQQYDTYPPITFGQGTKVEIK , koff reported as 0.000765 s⁻¹

koff reading for 2A5 (scFv) (scFv, also called clone 2A5) scFv: EVQLLESGGGLVQPGGSLRLSCAASGFTFSRYAMNWVRQAPGKGLEWVSAISASGGGTYYADSVKGRFTISRDNSKNTLYLQMNSLRAEDTAVYYCAKVRYGWGAGAFDYWGQGTLVTVSSGGGGSGGGGSGGGGSDIQMTQSPSTLSASVGDRVTITCRASQSISSWLAWYQQKPGKAPKLLIYDASSLESGVPSRFSGSGSGTEFTLTISSLQPDDFATYYCQQYDTYPPITFGQGTKVEIK : 0.000656 s⁻¹

2C7 (scFv) (scFv, also called clone 2C7) scFv: EVQLLESGGGLVQPGGSLRLSCAASGFTFKLPAMSWVRQAPGKGLEWVSAITGSGGSTYYADSVKGRFTISRDNSKNTLYLQMNSLRAEDTAVYYCAKVRYGWGAGAFDYWGQGTLVTVSSGGGGSGGGGSGGGGSDIQMTQSPSTLSASVGDRVTITCRASQSISSWLAWYQQKPGKAPKLLIYDASSLESGVPSRFSGSGSGTEFTLTISSLQPDDFATYYCQQYDTYPPITFGQGTKVEIK has a reported koff of 0.00041 s⁻¹

Consider 2D4 (scFv) (scFv, also called clone 2D4) scFv: EVQLLESGGGLVQPGGSLRLSCAASGFTFRKYAMGWVRQAPGKGLEWVSGISGSVGSTYYADSVKGRFTISRDNSKNTLYLQMNSLRAEDTAVYYCAKVRYGWGAGAFDYWGQGTLVTVSSGGGGSGGGGSGGGGSDIQMTQSPSTLSASVGDRVTITCRASQSISSWLAWYQQKPGKAPKLLIYDASSLESGVPSRFSGSGSGTEFTLTISSLQPDDFATYYCQQYDTYPPITFGQGTKVEIK . Its measured koff is 0.000745 s⁻¹

Reported koff for 1D8 (scFv) (scFv, also called clone 1D8) scFv: EVQLLESGGGLVQPGGSLRLSCAASGFTFSRYAMNWVRQAPGKGLEWVSAINASGGSTYYADSVKGRFTISRDNSKNTLYLQMNSLRAEDTAVYYCAKVRYGWGAGAFDYWGQGTLVTVSSGGGGSGGGGSGGGGSDIQMTQSPSTLSASVGDRVTITCRASQSISSWLAWYQQKPGKAPKLLIYDASSLESGVPSRFSGSGSGTEFTLTISSLQPDDFATYYCQQYDTYPPITFGQGTKVEIK was 0.000911 s⁻¹

Briefly, koff measured for 5D7 (scFv) (scFv, also called clone 5D7) scFv: EVQLLESGGGLVQPGGSLRLSCAASGFTFSNYAMSWVRQAPGKGLEWVSGIRSSGGRTFYADSVKGRFTISRDNSKNTLYLQMNSLRAEDTAVYYCARVAFSGSFDYWGQGTLVTVSSGGGGSGGGGSGGGGSDIQMTQSPSTLSASVGDRVTITCRASQSISSWLAWYQQKPGKAPKLLIYDASSLESGVPSRFSGSGSGTEFTLTISSLQPDDFATYYCQQRNRYPPTFGQGTKVEIK : 0.000443 s⁻¹

New cases:
Record 5G3 (scFv) (scFv, also called clone 5G3) scFv: EVQLLESGGGLVQPGGSLRLSCAASGFTFSSYVLSWVRQAPGKGLEWVSAIRGSAGNTYYADSVKGRFTISRDNSKNTLYLQMNSLRAEDTAVYYCARVAFSGSFDYWGQGTLVTVSSGGGGSGGGGSGGGGSDIQMTQSPSTLSASVGDRVTITCRASQSISSWLAWYQQKPGKAPKLLIYDASSLESGVPSRFSGSGSGTEFTLTISSLQPDDFATYYCQQRNRYPPTFGQGTKVEIK . Reported koff: 0.000586 s⁻¹

Form: binder = 1B11 (scFv) (scFv, also called clone 1B11) scFv: EVQLLESGGGLVQPGGSLRLSCAASGFTFSRDALNWVRQAPGKGLEWVSAISGSGGSTFYADSVKGRFTISRDNSKNTLYLQMNSLRAEDTAVYYCAKVRYGWGAGAFDYWGQGTLVTVSSGGGGSGGGGSGGGGSDIQMTQSPSTLSASVGDRVTITCRASQSISSWLAWYQQKPGKAPKLLIYDASSLESGVPSRFSGSGSGTEFTLTISSLQPDDFATYYCQQYDTYPPITFGQGTKVEIK ; koff = 0.000803 s⁻¹
